So I've got a bunch of compounds here, and I need their MHC10 values.
system: Erythrocyte; assay: Hemolytic activity in human RBC after 1 hr; format: ADME, cell-based
A complete answer gives the number and then names the unit.

The following compounds have reported results that may help.
CC[C@H](C)[C@H](NC(=O)[C@H](CC(C)C)NC(=O)[C@H](CCCCN)NC(=O)[C@@H](NC(=O)[C@@H](NC(=O)[C@H](CCCNC(=N)N)NC(=O)[C@@H](N)CCCCN)[C@@H](C)CC)C(C)C)C(=O)N[C@@H](CC(C)C)C(=O)N[C@@H](CCCCN)C(=O)N[C@@H](Cc1c[nH]c2ccccc12)C(=O)N[C@@H](CC(C)C)C(=O)N[C@@H](CCCNC(=N)N)C(N)=O = 25 µM
CC[C@H](C)[C@H](NC(=O)[C@H](CCCNC(=N)N)NC(=O)[C@@H](N)CCCCN)C(=O)N[C@H](C(=O)N[C@@H](CCCCN)C(=O)N[C@@H](CC(C)C)C(=O)N[C@H](CC(C)C)C(=O)N[C@@H](CC(C)C)C(=O)N[C@@H](CCCCN)C(=O)N[C@@H](Cc1c[nH]c2ccccc12)C(=O)N[C@@H](CC(C)C)C(=O)N[C@@H](CCCNC(=N)N)C(N)=O)C(C)C = 111 µM
CC[C@H](C)[C@H](NC(=O)[C@H](CCCNC(=N)N)NC(=O)[C@@H](N)CCCCN)C(=O)N[C@H](C(=O)N[C@@H](CCCCN)C(=O)N[C@H](CC(C)C)C(=O)N[C@H](C(=O)N[C@@H](CC(C)C)C(=O)N[C@@H](CCCCN)C(=O)N[C@@H](Cc1c[nH]c2ccccc12)C(=O)N[C@@H](CC(C)C)C(=O)N[C@@H](CCCNC(=N)N)C(N)=O)[C@@H](C)CC)C(C)C = 202 µM

Record CC[C@H](C)[C@H](NC(=O)[C@H](CC(C)C)NC(=O)[C@@H](CCCCN)NC(=O)[C@@H](NC(=O)[C@@H](NC(=O)[C@H](CCCNC(=N)N)NC(=O)[C@@H](N)CCCCN)[C@@H](C)CC)C(C)C)C(=O)N[C@@H](CC(C)C)C(=O)N[C@@H](CCCCN)C(=O)N[C@@H](Cc1c[nH]c2ccccc12)C(=O)N[C@@H](CC(C)C)C(=O)N[C@@H](CCCNC(=N)N)C(N)=O , field MHC10: 79 µM
